// data source = paper PMC4072508

Please respond with reported Kd for every item in the list.
# test target: Bfl-1 (Homo sapiens, UniProt Q16548)
# Construct: myc- Bfl-1 SPOT array & FP; made in house
# Sequence (Q16548 with tags, fused parts or gaps): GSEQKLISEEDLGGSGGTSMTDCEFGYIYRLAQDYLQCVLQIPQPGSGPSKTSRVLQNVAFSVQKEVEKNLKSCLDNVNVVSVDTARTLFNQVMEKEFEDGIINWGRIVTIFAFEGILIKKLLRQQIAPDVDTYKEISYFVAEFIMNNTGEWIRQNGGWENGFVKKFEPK
# experiment description: Fluorescence polarization direct binding
# condition: FP direct binding; 10 nM FAM-labeled peptide, receptor titrated; 25°C, pH 7.8; fit of all replicate titrations; X+number in a cell = highest concentration (nM) measured with no binding detected, given here as >; SPNS1 fit to raw fluorescence; read-out: Best-fit KD, Bfl-1
# Method: Peptides were purified by reverse-phase HPLC using a C18 column and a linear water/acetonitrile gradient. We re-analyzed the purified peptide by mass spectrometry if there was not a single well-defined peak in HPLC chromatogram. Fluorescence polarization (FP) assays were done at 25°C in assay buffer (20 mM NaPO4, 50 mM NaCl, 1 mM EDTA, 0.001% Triton X (v/v), pH 7.8). […] Anisotropy was measured using a Spectramax M5 plate reader from Molecular Devices. […]
No end group written: not given here.
One number for each entry, in nM.

substance	test target	Kd (nM)
DARDYAVVLRKYADKIYSISMKH-NH2 [FOLH1]	Bfl-1 (Homo sapiens, UniProt Q16548)	1600

--- query ---
q: # input substance: LRLFLAQRLRWLADSAPASRATA-NH2 [NBEAL2] ; wanted: its Kd
a: 3270
